pKi: −log10 of the molar value.
Notes on pKi obtained with JAK-2 enzyme (Homo sapiens).
Sequence (O60674 whole entry, species assumed): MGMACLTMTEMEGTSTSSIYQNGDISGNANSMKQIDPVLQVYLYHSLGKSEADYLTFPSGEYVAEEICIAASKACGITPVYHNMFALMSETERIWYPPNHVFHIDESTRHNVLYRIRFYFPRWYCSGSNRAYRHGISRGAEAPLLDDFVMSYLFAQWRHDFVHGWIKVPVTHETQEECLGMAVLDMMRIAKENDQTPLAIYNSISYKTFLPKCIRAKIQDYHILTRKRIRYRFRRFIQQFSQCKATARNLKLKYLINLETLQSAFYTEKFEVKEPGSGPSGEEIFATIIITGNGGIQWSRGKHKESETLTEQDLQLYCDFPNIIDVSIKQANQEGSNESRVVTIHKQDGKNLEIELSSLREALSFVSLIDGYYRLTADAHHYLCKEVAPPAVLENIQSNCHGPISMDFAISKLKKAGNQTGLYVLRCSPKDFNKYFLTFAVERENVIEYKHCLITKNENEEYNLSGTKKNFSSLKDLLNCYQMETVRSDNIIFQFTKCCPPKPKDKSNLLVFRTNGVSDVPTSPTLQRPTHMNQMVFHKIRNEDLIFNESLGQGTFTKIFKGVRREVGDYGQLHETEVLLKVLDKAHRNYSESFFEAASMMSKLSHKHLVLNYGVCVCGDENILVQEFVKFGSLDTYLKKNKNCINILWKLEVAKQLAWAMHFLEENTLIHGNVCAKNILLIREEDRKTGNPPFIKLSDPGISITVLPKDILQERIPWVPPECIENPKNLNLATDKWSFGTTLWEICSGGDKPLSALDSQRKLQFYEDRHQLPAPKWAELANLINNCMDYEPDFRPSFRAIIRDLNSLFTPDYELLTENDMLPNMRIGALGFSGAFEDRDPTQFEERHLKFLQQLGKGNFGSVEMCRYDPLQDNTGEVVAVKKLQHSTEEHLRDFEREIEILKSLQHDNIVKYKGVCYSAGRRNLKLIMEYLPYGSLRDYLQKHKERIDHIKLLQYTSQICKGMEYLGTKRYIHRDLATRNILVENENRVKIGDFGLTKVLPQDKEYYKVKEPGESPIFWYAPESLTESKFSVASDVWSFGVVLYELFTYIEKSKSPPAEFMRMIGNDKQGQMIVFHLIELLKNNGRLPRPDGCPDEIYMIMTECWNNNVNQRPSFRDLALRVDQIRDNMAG

The following molecules have reported results that may help.
molecule | systemTested | assayEndpoint | result
N#CCCN(CC1CC1)C(=O)c1coc(-c2ncnc3[nH]ccc23)c1 | JAK-2 enzyme (Homo sapiens) | pKi | > 7.00
N#CCCN(CC1CCCO1)C(=O)c1cc(-c2ncnc3[nH]ccc23)c[nH]1 (centres unmarked) | JAK-2 enzyme (Homo sapiens) | pKi | > 7.00
CC(=O)N1CCC(C(=O)Nc2nc(-c3ncnc4[nH]ccc34)cs2)CC1 | JAK-2 enzyme (Homo sapiens) | pKi | > 7.00
C=CCN(CC=C)C(=O)c1cc(-c2ncnc3[nH]ccc23)co1 | JAK-2 enzyme (Homo sapiens) | pKi | > 7.00
CN(CCc1ccccn1)C(=O)c1cc(-c2ncnc3[nH]ccc23)c[nH]1 | JAK-2 enzyme (Homo sapiens) | pKi | 6.30 to 7.00

Problem: I'm curious: which pKi was measured for c1nc(-c2cnn(C3CCCC3)c2)c2cc[nH]c2n1 tested on JAK-2 enzyme (Homo sapiens)?
Solution: > 7.00

Problem: Find pKi (JAK-2 enzyme (Homo sapiens)) for the entry CC(C)N(CCC(F)(F)F)C(=O)c1ccc(-c2ncnc3[nH]ccc23)o1
Solution: > 7.00

Problem: Provide value of pKi for this record tested with JAK-2 enzyme (Homo sapiens): CC[C@@H]1CC[C@@H](CC)N1C(=O)c1ccc(-c2ncnc3[nH]ccc23)o1
Solution: > 7.00

Problem: Query for JAK-2 enzyme (Homo sapiens): what pKi does the record show for COC1CCCC(C(=O)Nc2nc(-c3ncnc4[nH]ccc34)cs2)C1 (centres unmarked) ?
Solution: > 7.00

Problem: Test system JAK-2 enzyme (Homo sapiens); read-out pKi; what value for CC(C)CCC(=O)Nc1nc(-c2ncnc3[nH]ccc23)cs1 ?
Solution: > 7.00

Problem: I'm curious: which pKi was measured for O=C(CC(F)(F)F)Nc1nc(-c2ncnc3[nH]ccc23)cs1 tested on JAK-2 enzyme (Homo sapiens)?
Solution: > 7.00

Problem: Report pKi for O=C(NCc1ccccc1)c1cc(-c2ncnc3[nH]ccc23)c[nH]1 tested on JAK-2 enzyme (Homo sapiens).
Solution: > 7.00

Problem: What is its pKi for JAK-2 enzyme (Homo sapiens)? Entry: CCCC(C)n1cc(-c2ncnc3[nH]ccc23)cn1 (centres unmarked)
Solution: > 7.00

Problem: For JAK-2 enzyme (Homo sapiens), provide pKi of O=C(c1cc(-c2ncnc3[nH]ccc23)c[nH]1)N1CCC(O)C1 (centres unmarked) [Compound 56] please.
Solution: 6.30 to 7.00

Problem: What reported pKi corresponds to C[C@@H]1CC[C@@H](C)N1C(=O)c1cc(-c2ncnc3[nH]ccc23)cn1C on JAK-2 enzyme (Homo sapiens)?
Solution: > 7.00

Problem: Form: Entry = C#CCNC(=O)c1cc(-c2ncnc3[nH]ccc23)c[nH]1 | System = JAK-2 enzyme (Homo sapiens) | pKi = ____
Solution: > 7.00

Problem: Under JAK-2 enzyme (Homo sapiens): pKi value of CSCCNC(=O)C(C)n1cc(-c2ncnc3[nH]ccc23)cn1 (centres unmarked) ?
Solution: 6.30 to 7.00

Problem: Form: Entry = O=C(c1cc(-c2ncnc3[nH]ccc23)co1)N(CCC(F)(F)F)CC1CC1 | System = JAK-2 enzyme (Homo sapiens) | pKi = ____
Solution: > 7.00

Problem: Any idea what pKi came out for Cn1cc(-c2ncnc3[nH]ccc23)cc1C(=O)N(CC1CCC1)CC(F)(F)F on JAK-2 enzyme (Homo sapiens)?
Solution: > 7.00

Problem: Query the reported pKi for JAK-2 enzyme (Homo sapiens); item: CCCn1cc(-c2ncnc3[nH]cc(C)c23)cn1
Solution: 6.30 to 7.00
